# TARGET_SYSTEM: CCR2 (Homo sapiens (Human))
# Sequence (P41597 whole entry, species assumed): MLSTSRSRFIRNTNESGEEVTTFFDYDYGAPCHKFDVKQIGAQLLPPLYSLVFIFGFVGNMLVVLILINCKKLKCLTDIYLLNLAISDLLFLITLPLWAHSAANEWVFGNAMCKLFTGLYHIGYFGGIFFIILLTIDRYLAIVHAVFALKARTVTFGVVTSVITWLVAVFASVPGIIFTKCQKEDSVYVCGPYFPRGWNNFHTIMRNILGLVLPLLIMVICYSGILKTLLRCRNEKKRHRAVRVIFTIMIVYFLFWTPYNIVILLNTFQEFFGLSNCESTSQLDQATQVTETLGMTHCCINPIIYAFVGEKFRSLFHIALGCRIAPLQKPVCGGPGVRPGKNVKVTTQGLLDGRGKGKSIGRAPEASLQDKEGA
# PROTOCOL_DETAILS: Calcium activity assayed on the FLIPR Tetra in HEK-Gqi5 cells stably expressing CCR2
# Format: cell-based
# TEST_PARAMETERS: FLIPR Tetra calcium assay
REPORTED_ENDPOINT: CCR2 % ANTAGONISM (%)
Answer with a number only, understood to be in %.

// worked examples, CCR2 % ANTAGONISM included
[
  {
    "COMPOUND": "NC(=O)NCCSc1ccc(Cl)cc1NS(=O)(=O)c1cc2ccccc2o1",
    "REPORTED_MEASUREMENT": 103
  },
  {
    "COMPOUND": "Nc1cccc(C[S+]([O-])c2ccc(F)cc2NS(=O)(=O)c2cc3ccccc3o2)c1 (centres unmarked)",
    "REPORTED_MEASUREMENT": 91
  },
  {
    "COMPOUND": "Nc1cccc(C[S+]([O-])c2ccccc2NS(=O)(=O)c2cc3ccccc3o2)c1 (centres unmarked)",
    "REPORTED_MEASUREMENT": 110
  },
  {
    "COMPOUND": "O=S(=O)(Nc1cc(Cl)ccc1[S+]([O-])Cc1cccnc1F)c1cc2ccccc2o1 (centres unmarked)",
    "REPORTED_MEASUREMENT": 95
  }
]

Now for a further compound.
Quick one: give measured CCR2 % ANTAGONISM for CC(=O)Nc1nc(CSc2ccc(Cl)cc2NS(=O)(=O)c2cc3ccccc3o2)cs1 102

* * *

# TARGET_SYSTEM: UniProtKB P41597
# PROTOCOL_DETAILS: Calcium activity assayed on the FLIPR Tetra in HEK-Gqi5 cells stably expressing CCR2
# Format: cell-based
# TEST_PARAMETERS: FLIPR Tetra calcium assay
REPORTED_ENDPOINT: IC50 (nM)
Answer with a number only, understood to be in nM.

[
  {
    "COMPOUND": "CN(C)C(=O)C[S+]([O-])c1ccc(Cl)cc1NS(=O)(=O)c1ccc(Cl)c(C(F)(F)F)c1 (stereo not drawn)",
    "IC50 [nM]": 268
  },
  {
    "COMPOUND": "Nc1cc(CSc2ccc(Cl)cc2NS(=O)(=O)c2cc3ccccc3o2)ccn1",
    "IC50 [nM]": 80
  }
]

Quick one: give measured IC50 for CC(C)c1ccc(S(=O)(=O)Nc2cc(Cl)ccc2[S+](C)[O-])cc1 (stereo not drawn) 934

Quick one: give measured IC50 for O=S(=O)(Nc1cc(Cl)ccc1SCCc1ccccn1)c1cc2ccccc2o1 713

Quick one: give measured IC50 for COc1ccc(SCc2cccc(N)c2)c(NS(=O)(=O)c2cc3ccccc3o2)c1 1400

Quick one: give measured IC50 for O=S(=O)(Cc1cccc(O)c1)c1ccc(Cl)cc1NS(=O)(=O)c1cc2ccccc2o1 56

Quick one: give measured IC50 for O=[N+]([O-])c1cccc(CS(=O)(=O)c2ccc(F)cc2NS(=O)(=O)c2cc3ccccc3o2)c1 693

Quick one: give measured IC50 for Nc1cccc(C[S+]([O-])c2ccc(Cl)cc2NS(=O)(=O)c2cc3ccccc3o2)c1 (stereo not drawn) 39

Quick one: give measured IC50 for Nc1cccc(C[S+]([O-])c2ccc(Cl)cc2NS(=O)(=O)c2ccc(Cl)cc2F)c1 (stereo not drawn) 113
